All values here come from patent US20240392024A1.

Biological target: T1, TNFR2-His (Sino Biological, 10417-H08H, NP_001057.1 Met1-Asp257, with multi-histidine tag expressed on … (human, UniProt P20333 23-257))
T1 construct: range 1-257; Bought protein; also called recombinant human TNFR2 protein; TNFR2-His antigen; not shown: C-terminal multi-histidine tag
T1 sequence (looked up): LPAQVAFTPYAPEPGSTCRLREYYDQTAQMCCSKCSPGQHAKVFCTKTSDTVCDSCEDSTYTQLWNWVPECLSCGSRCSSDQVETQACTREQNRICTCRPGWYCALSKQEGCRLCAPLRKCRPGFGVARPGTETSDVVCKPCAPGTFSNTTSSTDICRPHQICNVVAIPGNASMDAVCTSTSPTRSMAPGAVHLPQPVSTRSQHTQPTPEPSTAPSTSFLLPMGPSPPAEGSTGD
Assay: BLI, antibody captured on AHC probe, TNFR2 in solution
MEASURED ENDPOINT: koff (s⁻¹)
Numeric answer only, unit s⁻¹ assumed.

Below: 3 binders and their reported koff.
Sure, the documented koff for 12E12huVH5 + huVL2(P07286) (antibody, V domains shown, Humanized 12E12) VH: EVQLVQSGAEVKKPGATVKISCKVSGFNIKDFYIHWVQQAPGKGLEWIGRVDPEDGNTEYAEKFQGRVTITADTSTDTAYMELSSLRSEDTAVYYCSTWDGFSYFDYWGQGTTVTVSS VL: QAVVTQEPSLTVSPGGTVTLTCRSSTGPVTTNNYANWVQQKPGQAFRGLIGGTNDRAPGVPARFSGSLLGGKAALTLSGAQPEDEAEYYCALWYRNHWVFGGGTKLTVL is 0.00197

Record 12E12-huVH6 + huVL2(P08937) (antibody, V domains shown, Humanized 12E12) VH: QVQLVQSGAEVKKPGASVKVSCKASGYTITDFYIHWVRQAPGQGLEWIGRVDPEDGNTEYAPNFQDRATMTTDTSTSTAYLELSSLRSEDTAVYYCSTWDGFSYFDYWGQGTTVTVSS VL: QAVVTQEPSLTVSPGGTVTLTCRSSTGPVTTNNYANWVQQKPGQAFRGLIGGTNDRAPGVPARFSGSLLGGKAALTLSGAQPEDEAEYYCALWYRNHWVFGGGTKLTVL . Reported koff: 0.00449

So, human-mouse chimeric TNFR2 monoclonal antibody 12E12-hFc (antibody, V domains shown, Mouse V regions of clone 12E12 with human constant regions; also called human-mouse chimeric 12E12 antibody) VH: EVQLQQSGAELVKPGASVKLSCTVSGFNIKDFYIHWVKQRPEQGLEWIGRVDPEDGNTEYAPNFQDRATMTTDTSSNTAYLQLSSLTSVDTAVYYCSTWDGFSYFDYWGLGTTLTVSS VL: QAVVTQESALTTSPGETVTLTCRSSTGPVTTNNYANWVQEKPDHLFTGLIGGTNDRAPGVPARFSGSLIGDKTALTITGTQTEDEAVYFCALWYRNHWVFGGGTKLTVL ? Its koff was 0.00216

---
Briefly, koff measured for 12E12huVH5 + huVL4(P07292) (antibody, V domains shown, Humanized 12E12) VH: EVQLVQSGAEVKKPGATVKISCKVSGFNIKDFYIHWVQQAPGKGLEWIGRVDPEDGNTEYAEKFQGRVTITADTSTDTAYMELSSLRSEDTAVYYCSTWDGFSYFDYWGQGTTVTVSS VL: EAVVTQSPATLSLSPGERATLSCRSSTGPVTTNNYANWVQQKPGQAFRGLIGGTNDRAPGIPARFSGSGSGTDTTLTISSLQPEDFAVYYCALWYRNHWVFGGGTKLEIK : 0.0034

12E12-huVH8 + huVL2(P08939) (antibody, V domains shown, Humanized 12E12) VH: EVQLVQSGAEVKKPGATVKISCKVSGYTITDFYIHWVQQAPGKGLEWMGRVDPEDGNTEYAPNFQDRVTITADTSTDTAYMELSSLRSEDTAVYYCSTWDGFSYFDYWGQGTTVTVSS VL: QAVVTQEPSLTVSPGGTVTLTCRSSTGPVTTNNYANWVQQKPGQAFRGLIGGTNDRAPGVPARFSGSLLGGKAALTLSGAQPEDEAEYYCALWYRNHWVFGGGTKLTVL yielded koff of 0.00442
